Values from the RNAGym collection of RNA variant scans (doi:10.7554/elife.80360)

B1: CPEB3 Ribozyme (parent)
chain: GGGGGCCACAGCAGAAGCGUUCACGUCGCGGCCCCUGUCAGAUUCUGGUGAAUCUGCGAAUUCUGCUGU

Variants of: B1
measurement protocol: self-cleavage, relative activity (ratio to wild type); higher = more cleavage; co-transcriptional
Tick Y if self-cleavage is 0.3 or greater. Tick N if self-cleavage is less than 0.3.

Test whether the variant G56U U61C records self-cleavage of 0.3 or higher.
Y

Also C22A U38C , if possible.
N

Also C57U U61A , if possible.
Y

Also G1A A23C , if possible.
N

Also A8C C33U , if possible.
Y

Also C24U C57A , if possible.
Y

Also G2C U69G , if possible.
N

Also G19C C27A , if possible.
N

Also C27A A52U , if possible.
Y

Also A10U U64G , if possible.
Y

Also G25A C54U , if possible.
N

Also G2U G37C , if possible.
N
